Test system: U251 CNS
test_description: NCI tumour cell line growth inhibition, 48 h
recorded_metric: TGI

Reference set, count: 3
COc1ccc2nc3cc(Cl)ccc3c(NCCNc3c4ccc(Cl)cc4nc4ccc(OC)cc34)c2c1	3.28 µM
COC(=O)c1c(O)ccc2c1c1c(n2Cc2ccccc2)C(=O)c2ccccc2C1	> 100 µM
O=C(NC(=S)Nc1cc(Cl)ccc1O)c1cccc(Br)c1	> 100 µM

Asked: Look up TGI with U251 CNS for this molecule: O=C1c2ccccc2C(=O)c2[nH]c(Cc3ccc(F)cc3)nc21
Given back: 47 µM

Asked: Look up TGI with U251 CNS for this molecule: Cn1cc(C2=C(N3CCOCC3)C(=O)NC2=O)c2ccccc21
Given back: > 25 µM

Asked: Look up TGI with U251 CNS for this molecule: CC(=O)/C(=C/N1CCNC1=S)C(=O)Nc1ccccc1C
Given back: > 100 µM

Asked: Look up TGI with U251 CNS for this molecule: COc1ccccc1C(=O)N(C)c1ccc(Cl)c(C(=O)OC(C)C)c1
Given back: > 100 µM

Asked: Look up TGI with U251 CNS for this molecule: CN(Cc1cc(Cl)c(Cl)cc1NC(=O)CN)[C@H]1CCCC[C@@H]1N1CCCC1
Given back: 18.8 µM

Asked: Look up TGI with U251 CNS for this molecule: COc1cc(CS(=O)c2ccc(O)cc2)cc(OC)c1OC (stereo unspecified)
Given back: > 100 µM

Asked: Look up TGI with U251 CNS for this molecule: CN(C)/N=N/c1nc[nH]c1C(N)=O
Given back: > 1000 µM

Asked: Look up TGI with U251 CNS for this molecule: CC(C)(C)CC(C)(C)c1ccc(O)c(C[N+](C)(C)[O-])c1
Given back: > 100 µM

###

Tested on: NCI-H460 lung
test_description: NCI tumour cell line growth inhibition, 48 h
recorded_metric: log10 of TGI (log10 of the value in µM)
Quick note: numbers are log10 of TGI, with µM as the unit.

Cc1nc2ccccc2c(/C=C/c2ccc(Cl)cc2)c1C(=O)/C=C/c1ccccc1	0.50
C/C(=N\NC(=S)N(C)C)c1ccccn1	0.61
Cc1ccc([C@]2(C)CC[C@H](C)/C2=C\Br)c(O)c1	1.22
CNCCN=c1ccc2c3c1c(O)c1c(O)ccc(=O)c1c3[nH]n2CCNCCO	0.08

Turning now to a further compound:
Asked: Request the reported log10 of TGI associated with Cc1ccc(Sc2cc3c(oc2=O)-c2ccccc2OC3O)cc1 (stereo unspecified)
Given back: 1.74

###

Consider the following compounds and their measured GI50 readings.
System: BT-549 breast
test_description: NCI tumour cell line growth inhibition, 48 h

Reference set, count: 6
O=c1ccc2nc(-c3ccccn3)nn(-c3ccccc3)c-2c1	2.86 µM
CCCCCCCCCCCCCCCC1=NC(C)(C)CN1C(C)C	5.12 µM
Nc1c(C(=O)Nc2cccc(Cl)c2Cl)sc2nc3c(cc12)C(=O)CCC3	> 100 µM
CC1=NN(c2nc(N)nc(/C=C\c3ccc([N+](=O)[O-])s3)n2)C(C)(C)C1	> 100 µM
Cc1ccc(-c2cc(O)c(-c3ccc(C)cc3C)cc2O)c(C)c1	7.56 µM
C=C(C(=O)O[C@H]1C(=O)C2=C(C)CCC3C(=C)C(=O)O[C@@H]3C2[C@]1(C)O)C1CC[C@]2(C)CCCC(=C)[C@H]2C1 (some centres not stated)	6.99 µM

Turning now to a further compound:
Asked: Request the reported GI50 associated with COc1cc(-c2csc(NC(=O)Nc3cc(Cl)cc(Cl)c3)n2)cc(OC)c1OC
Given back: 2.2 µM

###

Consider the following compounds and their measured TGI readings.
Test system: SR leukemia
test_description: NCI tumour cell line growth inhibition, 48 h

Reference set, count: 4
COc1cc(CS(=O)c2ccc(O)cc2)cc(OC)c1OC (stereo not given)	> 100 µM
COc1ccc(Sc2ccccc2N)cc1	> 100 µM
Cc1ccc(C(=O)CC2=Nc3nnc(CCCCCCCc4nnc5n4C(=O)C(CC(=O)c4ccc(C)cc4)=N5)n3C2=O)cc1	> 100 µM
Cc1cccc(Cc2cnc(NC(=O)CCc3ccc(C)o3)s2)c1	> 100 µM

Turning now to a further compound:
Asked: Look up TGI with SR leukemia for this compound: O=C(CSc1nc2ccccc2c(=O)n1-c1ccccc1)N=Nc1c(O)[nH]c2ccc(F)cc12
Given back: 4.21 µM

###

Consider the following compounds and their measured TGI readings.
Tested on: SF-295 CNS
test_description: NCI tumour cell line growth inhibition, 48 h

Asked: Request the reported TGI associated with N=C(N)c1ccc(-c2ccc(-c3ccc(Cl)cc3Cl)s2)cc1
Given back: 3.19 µM

Asked: Request the reported TGI associated with CC1=C(C)C(=O)C(C2=CC(=O)C=CC2=O)=C(C2=CC(=O)C=CC2=O)C1=O
Given back: > 100 µM

Asked: Request the reported TGI associated with OC(CC(O)(C(F)(F)F)C(F)(F)F)c1ccc(C(O)CC(O)(C(F)(F)F)C(F)(F)F)cc1 (stereo not given)
Given back: 32.5 µM

Asked: Request the reported TGI associated with O=C(O)C(=O)/C=C(\O)c1ccc(Br)cc1
Given back: > 100 µM

Asked: Request the reported TGI associated with CCCCCCCCCCCCCCCCCC(=O)Nc1ccn(C2OC(CO)C(O)C2O)c(=O)n1 (stereo not given)
Given back: > 100 µM

Asked: Request the reported TGI associated with C[N+](C)(CCNC(=O)c1cccc2cc3ccccc3nc12)Cc1ccc([N+](=O)[O-])s1
Given back: > 25 µM

Asked: Request the reported TGI associated with COC1OC2=CCC3C(=O)NC(=O)C3C2[C@H](OCc2ccccc2)C1OCc1ccccc1 (stereo not given in full)
Given back: 32.7 µM

Asked: Request the reported TGI associated with O=NN(CCCl)C(=O)NC1CCC(CC2CCC(NC(=O)N(CCCl)N=O)CC2)CC1 (stereo not given)
Given back: > 79.2 µM

Asked: Request the reported TGI associated with O=c1oc2ccccc2c(O)c1C(C/C(CCN1CCCC1)=N\Nc1ccccc1)c1ccccc1 (stereo not given)
Given back: > 100 µM

Asked: Request the reported TGI associated with CC(=O)Nc1ccccc1NC1CC(C)N(c2ccccc2)N1C(C)=O (stereo not given)
Given back: > 10 µM

Asked: Request the reported TGI associated with CC(=C/c1ccccc1)/C=C1/NC(=S)N(/C=C2\C(=O)Oc3ccccc3C2=O)C1=O
Given back: > 100 µM

Asked: Request the reported TGI associated with N#CC(C#N)=C1C(=O)NC(N)=C1C#N
Given back: > 100 µM

###

Tested on: OVCAR-8 ovarian
test_description: NCI tumour cell line growth inhibition, 48 h
Consider the following compounds and their measured TGI readings.

Reference set, count: 2
CCOC(=O)c1c(-c2cccc3ccccc23)c(C#N)c(=S)n(C2OC(COC(C)=O)C(OC(C)=O)C(OC(C)=O)C2OC(C)=O)c1C (stereo unspecified)	> 100 µM
O=C1c2ccccc2C(=O)c2[nH]c(Cc3ccc(F)cc3)nc21	35.3 µM

Asked: Request the reported TGI associated with CCN(Cc1c(Cl)cccc1Cl)c1ccc(CO)c(Cl)c1
Given back: 29.7 µM

Asked: Request the reported TGI associated with Brc1cc2c(cc1Br)CN(c1ccccc1)C2
Given back: > 100 µM

Asked: Request the reported TGI associated with CC(=O)[O-].O=C([CH-]C(=O)c1ccccc1)c1ccccc1.O=C([CH-]C(=O)c1ccccc1)c1ccccc1.[Sm+3]
Given back: 16.3 µM

Asked: Request the reported TGI associated with O=c1ccc2nc(-c3ccccn3)nn(-c3ccccc3)c-2c1
Given back: > 100 µM

Asked: Request the reported TGI associated with [N-]=[N+]=Nc1c([N+](=O)[O-])c(=O)n2c3c(cccc13)CCC2
Given back: 35.1 µM

Asked: Request the reported TGI associated with O=[N+]([O-])C(Cl)=C/C(=C(\Cl)SCc1ccccc1)[N+](=O)[O-]
Given back: 59.9 µM

Asked: Request the reported TGI associated with S=c1[nH]c2ccc(I)cc2c(=S)n1Cc1ccccc1
Given back: 53.6 µM

Asked: Request the reported TGI associated with COc1ccc(-c2nn(-c3ccc(NC(=O)Nc4ccc(Cl)c(C(F)(F)F)c4)cc3)cc2-c2ccncc2)cc1Cl
Given back: 20.7 µM

Asked: Request the reported TGI associated with NC1CC=C(COC(=O)C(O)(c2ccccc2)C2CC2)CC1 (stereo unspecified)
Given back: > 100 µM

Asked: Request the reported TGI associated with CCN(CC)C(=S)[S][Bi]([S]C(=S)N(CC)CC)[S]C(=S)N(CC)CC
Given back: 0.755 µM

###

Consider the following molecules and their measured TGI readings.
Test system: A549 NSCLC
test_description: NCI tumour cell line growth inhibition, 48 h

Reference set, count: 6
O=c1oc2ccccc2c(O)c1C(C/C(CCN1CCCC1)=N\Nc1ccccc1)c1ccccc1 (centres undefined)	> 100 µM
CCOC(=O)C(NC(=O)OC(C)(C)C)C(=O)OCC	> 100 µM
O=C(NC(=S)Nc1cc(Cl)ccc1O)c1cccc(Br)c1	> 100 µM
Cc1cccc(Cc2cnc(NC(=O)CCc3ccc(C)o3)s2)c1	> 100 µM
CCCCCCCCCCCCCCCC1=NC(C)(C)CN1C(C)C	3.43 µM
CN(C)CC/C(=N\Nc1ccc(Cl)cc1Cl)c1ccccc1	29.6 µM

Asked: Request the reported TGI associated with Cc1ccc(Sc2cc3c(oc2=O)-c2ccccc2OC3O)cc1 (centres undefined)
Given back: 74.8 µM

Asked: Request the reported TGI associated with Cn1c(O)c(C=Nc2ccccc2Cl)c(=O)n(C)c1=O
Given back: > 100 µM

Asked: Request the reported TGI associated with [N-]=[N+]=C(C(=O)N1CCCC1=O)S(=O)(=O)c1ccccc1
Given back: > 100 µM

The reported numbers originate from PubChem BioAssay (NCI).
